organism: Rattus norvegicus; test: Open TG-GATES - Regimen: Single; format: toxicity, organism-based, Sprague-Dawley; design: regimen Single, gender Male, age 6 weeks; details: in vivo, po, 0 mg/kg, 9 h, tissue Blood, route gavage, dose level Control

MOLECULE | VALUE_UNIT | Fbg
S=C=Nc1cccc2ccccc12 [1-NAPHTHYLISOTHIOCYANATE] | mg/dL | 234.6
Cn1cnc([N+](=O)[O-])c1Sc1ncnc2nc[nH]c12 | mg/dL | 301.8
O=C1NC(=O)C(c2ccccc2)(c2ccccc2)N1 | mg/dL | 295.6
O=C1CN(/N=C/c2ccc(-c3ccc([N+](=O)[O-])cc3)o2)C(O)=N1 | mg/dL | 200.6
Cc1cnc(NC(=O)C2=C(O)c3ccccc3S(=O)(=O)N2C)s1 | mg/dL | 233.2
C=CCO | mg/dL | 219.6
COc1ccc(Cl)cc1C(=O)NCCc1ccc(S(=O)(=O)NC(=O)NC2CCCCC2)cc1 [GLYBURIDE] | mg/dL | 220
COc1ccc(O)c(C(C)(C)C)c1.COc1ccc(O)cc1C(C)(C)C [BUTYLATED HYDROXYANISOLE] | mg/dL | 263
CS(=O)(=O)Nc1ccc([N+](=O)[O-])cc1Oc1ccccc1 [NIMESULIDE] | mg/dL | 204.8
Cc1cccc(Nc2cc(Cl)nc(SCC(=O)O)n2)c1C | mg/dL | 268

The values you see were collected from ChEMBL document CHEMBL3885861.
